Reference source for all entries: paper PMC11266677

# study-target: Acs1 (acetyl CoA synthetase) (Saccharomyces cerevisiae, UniProt Q01574)
# Sequence (Q01574 whole entry): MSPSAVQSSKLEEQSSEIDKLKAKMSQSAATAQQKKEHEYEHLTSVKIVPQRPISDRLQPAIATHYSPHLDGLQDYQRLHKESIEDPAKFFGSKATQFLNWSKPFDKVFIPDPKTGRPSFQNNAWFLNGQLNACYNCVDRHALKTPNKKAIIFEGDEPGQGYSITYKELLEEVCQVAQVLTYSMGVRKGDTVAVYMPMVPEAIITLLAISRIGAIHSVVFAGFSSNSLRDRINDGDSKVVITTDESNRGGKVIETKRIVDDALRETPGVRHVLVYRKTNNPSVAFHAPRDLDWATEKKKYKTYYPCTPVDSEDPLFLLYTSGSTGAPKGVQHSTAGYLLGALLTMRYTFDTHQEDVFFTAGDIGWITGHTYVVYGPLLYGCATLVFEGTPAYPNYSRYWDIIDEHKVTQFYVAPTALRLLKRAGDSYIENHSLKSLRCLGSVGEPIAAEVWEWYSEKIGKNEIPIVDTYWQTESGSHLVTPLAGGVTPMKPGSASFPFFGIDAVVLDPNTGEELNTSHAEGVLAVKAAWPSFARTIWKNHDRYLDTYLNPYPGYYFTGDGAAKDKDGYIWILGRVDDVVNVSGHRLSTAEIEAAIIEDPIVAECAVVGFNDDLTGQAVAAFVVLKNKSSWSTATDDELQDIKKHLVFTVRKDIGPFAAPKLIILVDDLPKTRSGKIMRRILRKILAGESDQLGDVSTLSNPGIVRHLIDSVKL
pIC50: −log10 of the molar value.
measured-attribute: pIC50

INSERT INTO measurements (smiles_string, measured_attribute, recorded_value) VALUES
  ('NCC(=O)Nc1ccc(-n2nc(C(F)(F)F)cc2-c2ccc3c(ccc4ccccc43)c2)cc1', 'pIC50', '~4.74');
